The measurements presented in this section are drawn from patent US9193719B2.

Parameter: IC50. Scope: all listed entries.
- target-under-test: unphosphorylated PDGFRβ kinase (uPDGFRβ, Seq. ID No. 3) (Homo sapiens, UniProt P09619)
- Sequence (P09619 557-1106): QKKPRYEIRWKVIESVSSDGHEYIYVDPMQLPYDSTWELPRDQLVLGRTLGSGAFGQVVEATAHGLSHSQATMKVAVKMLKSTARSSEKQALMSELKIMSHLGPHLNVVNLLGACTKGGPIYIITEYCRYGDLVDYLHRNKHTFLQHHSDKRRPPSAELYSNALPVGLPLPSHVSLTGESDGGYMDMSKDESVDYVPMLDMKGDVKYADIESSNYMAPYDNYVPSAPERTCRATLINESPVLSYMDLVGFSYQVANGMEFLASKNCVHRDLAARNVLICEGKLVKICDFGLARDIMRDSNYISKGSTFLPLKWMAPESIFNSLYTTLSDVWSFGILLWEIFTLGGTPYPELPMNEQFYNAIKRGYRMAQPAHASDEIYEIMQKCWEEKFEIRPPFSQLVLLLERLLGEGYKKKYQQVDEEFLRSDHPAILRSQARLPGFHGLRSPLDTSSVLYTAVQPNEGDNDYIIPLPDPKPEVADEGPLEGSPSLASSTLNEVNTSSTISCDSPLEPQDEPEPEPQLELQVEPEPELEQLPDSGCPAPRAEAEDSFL
- test-method-notes: uPDGFRβ kinase enzymatic assay (pyruvate kinase/lactate dehydrogenase coupled)
- condition-summary: ATP 500 μM, rate 1.5 to 2.5 h

Here's what some known entries look like.
Cc1nc(-n2nc(C(C)(C)C)[nH]c2=O)ccc1Oc1ccnc(-c2ccc(C3CCN(C)CC3)cc2)c1 | > 1 µM
Cc1nc(-n2nc(CC(C)(C)C)[nH]c2=O)ccc1Oc1ccnc(-c2cnn(C)c2)c1 | 0.1 to 1 µM
Cc1cc(-c2cc(Oc3ccc(-n4nc(C(C)(C)C)[nH]c4=O)nc3C)ccn2)ccn1 | > 1 µM
Cc1nc(-n2nc(C(C)(C)C)[nH]c2=O)ccc1Oc1ccnc(-c2cn(C)cn2)c1 | > 1 µM
Cc1nc(-n2nc(C3CCC3)[nH]c2=O)ccc1Oc1ccnc(-c2cnn(C)c2)c1 | 0.1 to 1 µM

Sample `Cc1ccc(-c2cc(Oc3ccc(-n4nc(C(C)(C)C)[nH]c4=O)nc3C)ccn2)cn1` — what was its IC50?
> 1 µM

Param item = `Cc1ncc(-c2cc(Oc3ccc(-n4nc(C(C)(C)C)[nH]c4=O)nc3C)ccn2)s1` ; retrieve measured IC50.
> 1 µM

Find the recorded IC50 belonging to `Cc1nc(-n2nc(Cc3ccc(F)cc3)[nH]c2=O)ccc1Oc1ccnc(-c2cnn(C)c2)c1` and report it.
0.1 to 1 µM

* * *

- target-under-test: unphosphorylated c-KIT kinase (uKIT, Seq. ID no. 2) (Homo sapiens)
- Construct: uKit with N-terminal GST fusion used for screening
- Sequence (P10721 with tags, fused parts or gaps): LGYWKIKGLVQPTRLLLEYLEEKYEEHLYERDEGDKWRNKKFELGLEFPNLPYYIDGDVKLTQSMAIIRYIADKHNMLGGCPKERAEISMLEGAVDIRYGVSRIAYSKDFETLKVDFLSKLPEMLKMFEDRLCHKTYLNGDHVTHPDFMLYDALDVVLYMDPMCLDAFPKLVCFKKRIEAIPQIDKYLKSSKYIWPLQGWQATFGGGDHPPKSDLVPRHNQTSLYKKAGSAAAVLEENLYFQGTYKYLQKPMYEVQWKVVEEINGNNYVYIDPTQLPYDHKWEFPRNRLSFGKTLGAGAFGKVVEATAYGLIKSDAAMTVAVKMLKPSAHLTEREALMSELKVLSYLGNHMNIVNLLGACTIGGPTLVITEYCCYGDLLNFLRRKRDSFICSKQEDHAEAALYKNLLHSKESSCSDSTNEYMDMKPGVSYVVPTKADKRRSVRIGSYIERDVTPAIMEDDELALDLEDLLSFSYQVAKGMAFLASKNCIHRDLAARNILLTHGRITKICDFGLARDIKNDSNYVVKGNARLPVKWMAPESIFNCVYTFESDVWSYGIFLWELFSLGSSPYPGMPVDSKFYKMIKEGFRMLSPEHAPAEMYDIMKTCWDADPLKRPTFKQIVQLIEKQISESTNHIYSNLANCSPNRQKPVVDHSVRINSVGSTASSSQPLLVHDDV
- test-method-notes: uKit kinase enzymatic assay (pyruvate kinase/lactate dehydrogenase coupled)
- condition-summary: ATP 2000 μM, rate 3 to 4 h
measurement-type: IC50

Example cases with answers are listed next.
Cc1nc(-n2nc(C3CCOCC3)[nH]c2=O)ccc1Oc1ccnc(-c2cnn(C)c2)c1 | 0.1 to 1 µM
Cc1nc(-n2nc(C3(C(F)(F)F)CCC3)[nH]c2=O)ccc1Oc1ccnc(-c2cnn(C)c2)c1 | 0.01 to 0.1 µM
Cc1nc(-n2nc(-c3ccc(F)cc3)[nH]c2=O)ccc1Oc1ccnc(NC(=O)C2CC2)c1 | 0.01 to 0.1 µM
Cc1cc(-n2nc(C(C)(C)C)[nH]c2=O)nc(C)c1Oc1ccnc(-c2cnn(C)c2)c1 | 0.1 to 1 µM
COCC(C)(C)c1nn(-c2ccc(Oc3ccnc(-c4cnn(C)c4)c3)c(C)n2)c(=O)[nH]1 | 0.1 to 1 µM

Which IC50 reading was recorded for the molecule `Cc1cn(-c2cc(Oc3ccc(-n4nc(-c5ccc(F)cc5)[nH]c4=O)nc3C)ccn2)cn1` ?
0.1 to 1 µM

Suppose we examine the molecule `Cc1nc(-n2nc(CC(C)C)[nH]c2=O)ccc1Oc1ccnc(-c2cnn(C)c2)c1` ; what IC50 value has been reported?
0.01 to 0.1 µM

Looking for the measured IC50 of `Cc1nc(-n2nc(C(C)(C)CO)[nH]c2=O)ccc1Oc1ccnc(-c2cnn(C)c2)c1` , can you help?
> 1 µM

* * *

- Tested on: M-NFS-60 cells
- test-method-notes: M-NFS-60 cell proliferation assay (resazurin)
- Format: cell-based
- condition-summary: 67 h incubation
measurement-type: IC50

Recorded IC50 for Cc1nc(-n2nc(C3CCCC3)[nH]c2=O)ccc1Oc1ccnc(-c2cnn(C)c2)c1 [Example 34] , please?
≤ 10 nM

Request the reported IC50 associated with Cc1nc(-n2nc(C(C)(C)CO)[nH]c2=O)ccc1Oc1ccnc(-c2cnn(C)c2)c1 [Example 42]
> 1000 nM

For the compound Cc1nc(-n2nc(C(C)(C)C)n(C)c2=O)ccc1Oc1ccnc(-c2cnn(C)c2)c1 [Example 13] , what IC50 is on record?
100 to 1000 nM

Return reported IC50; argument: Cc1nc(-n2nc(C(C)(C)C)[nH]c2=O)ccc1Oc1ccnc(-c2ccnc(N3CCN(C)CC3)c2)c1 [Example 41]
> 1000 nM

Entry COCC(C)(C)c1nn(-c2ccc(Oc3ccnc(-c4cnn(C)c4)c3)c(C)n2)c(=O)[nH]1 [Example 46] has what IC50?
100 to 1000 nM

Quick check: IC50 of CCc1nc(-n2nc(C(C)(C)C)[nH]c2=O)ccc1Oc1ccnc(-c2cnn(C)c2)c1 [Example 8] ?
100 to 1000 nM
